# assay: chemical genetic growth profiling, strain panel (AID 1159580);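 note: tested at 20 µM; growth read once vehicle control cultures reached saturation at 30 °C; 1 = growth at the plate median or of vehicle wells; lower values mean less growth of the strain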
# particulars: S. cerevisiae deletion strains, growth OD, locus YDL035C, strain GPR1
Screen size: about 5,500 compounds; about 2,000 (36%) were called active. Inconclusive results (about 18%) are left out. Cut-off read from the data, not from the text of the source: active = normalized growth mostly below about 0.91 (no sharp cut-off); inconclusive = no clear call, values can overlap the other calls; inactive = mostly above about 0.92. This is one part of the list.
In this exercise, the only acceptable responses are y (active), n (inactive)

Solved entries (count: 2):
{"molecule": "CC(C)N(C(=O)SCC(Cl)=C(Cl)Cl)C(C)C", "class.assignment": "n"}
{"molecule": "CN(C)CCOC(C)(c1ccccc1)c1ccccn1 (stereo not given)", "class.assignment": "n"}

Give the logged outcome of this assay for the following molecule: "CNc1ccccc1C(=O)O"
n

Give the logged outcome of this assay for the following molecule: "Cc1ccsc1/C=C/C1=NCCCN1C"
n

Give the logged outcome of this assay for the following molecule: "CCCCC1=NC2(CCCC2)C(=O)N1Cc1ccc(-c2ccccc2-c2nn[nH]n2)cc1"
n

Give the logged outcome of this assay for the following molecule: "C1CCN2C[C@@H]3C[C@H](CN4CCCC[C@@H]34)[C@H]2C1"
n

----------
# assay: chemical genetic growth profiling, strain panel (AID 1159580);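 note: tested at 20 µM; growth read once vehicle control cultures reached saturation at 30 °C; 1 = growth at the plate median or of vehicle wells; lower values mean less growth of the strain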
# particulars: S. cerevisiae deletion strains, growth OD, locus YJR043C, strain POL32
In all, about 5,500 compounds went through this assay and about 2,000 (36%) were called active. Roughly 18% stayed inconclusive and do not appear here. Cut-off read from the data, not from the text of the source: active = normalized growth mostly below about 0.91 (no sharp cut-off); inconclusive = no clear call, values can overlap the other calls; inactive = mostly above about 0.92. The list shows a part of the results.
In this exercise, the only acceptable responses are active, inactive

Solved entries (count: 6):
{"compound": "Cc1ccc2cc3c(ccc4ccccc43)c3c2c1CC3", "class.assignment": "inactive"}
{"compound": "O=C(Nc1ccccc1F)C(Cl)Cl", "class.assignment": "inactive"}
{"compound": "Clc1cc(Cl)c(Cl)c(-n2cccc2)c1Cl", "class.assignment": "active"}
{"compound": "C1CCN2CC3CC(CN4CCCCC34)C2C1 (centres undefined)", "class.assignment": "inactive"}
{"compound": "CC1CCN(C(=O)CC#N)CC1", "class.assignment": "inactive"}
{"compound": "CCCc1cc(Br)c(-n2cccc2)c(Br)c1", "class.assignment": "inactive"}

Give the logged outcome of this assay for the following compound: "O=C(COC(=O)c1ccccc1Nc1cccc(F)c1)c1ccccc1"
inactive

Give the logged outcome of this assay for the following compound: "O=C(Nc1ccc(C(F)(F)F)cc1)Nc1ccccc1C(=O)O"
inactive

Give the logged outcome of this assay for the following compound: O=C1O[C@H](C(O)CO)C(O)=C1O (some centres undefined)
inactive

Give the logged outcome of this assay for the following compound: "Clc1cc(Cl)cc(-n2cccc2)c1"
inactive

----------
# assay: chemical genetic growth profiling, strain panel (AID 1159580);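 note: tested at 20 µM; growth read once vehicle control cultures reached saturation at 30 °C; 1 = growth at the plate median or of vehicle wells; lower values mean less growth of the strain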
# particulars: S. cerevisiae deletion strains, growth OD, locus YER002W, strain NOP16, hits give low values
In all, about 5,500 compounds went through this assay and about 2,000 (36%) were called active. Roughly 18% stayed inconclusive and do not appear here. Some of the results follow.
# reported normalized growth; entries follow
Lab note: record just the number, no unit beside it.

{"compound": "N[C@@H](CCC(=O)N[C@H](CSN=O)C(=O)NCC(=O)O)C(=O)O", "normalized growth": 1}
{"compound": "O=C(O)C1=CCNCC1", "normalized growth": 0.993}
{"compound": "NC1C=CC=C(C(=O)O)C1 (configuration not stated)", "normalized growth": 0.992}
{"compound": "O=C(O)CCCC[C@@H]1CCSS1", "normalized growth": 0.968}
{"compound": "CN1CCC(c2c[nH]c3ccc(O)cc23)CC1", "normalized growth": 0.987}

Assign normalized growth to the following record: C=C(C)C1CC=C(C(=O)O)CC1 (configuration not stated)
1.02

Assign normalized growth to the following record: "Clc1ccc(N2CC3CCC(C2)N3)nn1"
1

Hey, just so you know, these numbers are from PubChem BioAssay AID1159580.
